Readings of Population Pyknosed Nuclei (%) for the listed molecules
- System: Fibroblast
- ASSAY NAME: Multiplex assay against human fibroblast
- Assay type: toxicity, cell-based
- RUN CONDITIONS: 12 h, 10 µM, compound concentration 10 uM, replicate 2
MEASURED PARAMETER: Population Pyknosed Nuclei (%)

                                   molecule  readout_units  result_number
0  CN(C)C/C=C/C(=O)Nc1ccc(C(=O)N2CCCC(Nc3ncc(Cl)c(-c4c[nH]c5ccccc45)n3)C2)cc1 (centres undefined)              %             35
1  COCCCN1CCC(NC(=O)c2cc(Cl)c(N)c3c2OCC3)CC1 [PRUCALOPRIDE]              %             25
2  COc1cc(Nc2ncc3c(n2)-c2ccc(Cl)cc2C(c2c(F)cccc2OC)=NC3)ccc1C(=O)O [ALISERTIB]              %             33
3  Cc1ccc(OCC(O)C(C)NC(C)C)c2c1CCC2.Cl (centres undefined)              %             16
4   OCCCNc1cc(-c2ccnc(Nc3cccc(Cl)c3)n2)ccn1              %              9
5  Nc1nc(CC(=O)Nc2ccc(CCNC[C@H](O)c3ccccc3)cc2)cs1 [MIRABEGRON]              %             27
6  CC(C)C[C@H](CO)Nc1nc(S[C@@H](C)c2ccccc2)nc2nc(N)sc12 [AZD-8797]              %             21
7  C[C@H](NC(=O)CNC(=O)c1cccc(Cl)c1)c1ccccc1              %             24
8  COc1cc2nc(N3CCN(C(=O)c4ccco4)CC3)nc(N)c2cc1OC.Cl [PRAZOSIN HYDROCHLORIDE]              %             21

====

- Test system: HEK-293T
- ASSAY NAME: Multiplex assay against HEK293T
- Assay type: toxicity, cell-based
- RUN CONDITIONS: human, 12 h, 1 µM, compound concentration 1 uM, replicate 2
MEASURED PARAMETER: Population Pyknosed Nuclei (%)

>>> df
                                   compound  result_number
0  CN(C)C/C=C/C(=O)Nc1ccc(C(=O)N2CCCC(Nc3ncc(Cl)c(-c4c[nH]c5ccccc45)n3)C2)cc1 (stereo not given)             29
1  Cc1ccc(OCC(O)C(C)NC(C)C)c2c1CCC2.Cl (stereo not given)             10
2  COCCCN1CCC(NC(=O)c2cc(Cl)c(N)c3c2OCC3)CC1 [PRUCALOPRIDE]             12
3  CCCCCCNC(=O)Nc1ccc(S(=O)(=O)Nc2ccc(CCNC[C@H](O)COc3ccc(O)cc3)cc2)cc1 [L-755507]             10
4  O=C(O)CCC/C=C\CC1C(O)CC(O)C1/C=C/C(O)COc1cccc(Cl)c1 (stereo not given) [CLOPROSTENOL]             13

====

- Test system: HEK-293T
- ASSAY NAME: Multiplex assay against HEK293T
- Assay type: toxicity, cell-based
- RUN CONDITIONS: human, 12 h, 10 µM, compound concentration 10 uM, replicate 2
Readings of Population Mitochondria Different-Phenotype (%) for the listed molecules
MEASURED PARAMETER: Population Mitochondria Different-Phenotype (%)

                                   molecule  readout_units  result_number
0         O=c1nc2[nH]c3ccccc3nc-2c(=O)[nH]1              %             67
1  C=CCN1C[C@H](C(=O)N(CCCN(C)C)C(=O)NCC)C[C@@H]2c3cccc4[nH]cc(c34)C[C@H]21              %             81
2  O=C(O)CCC/C=C\CC1C(O)CC(O)C1/C=C/C(O)COc1cccc(Cl)c1 (centres undefined)              %             68
3  Cc1cc(-c2ccc3c(c2)CC[C@H]3N2CC3(CCN(C(=O)Cc4cn5cc(C)sc5n4)CC3)C2)ncn1              %             70
